target: human ACC2 (Homo sapiens (Human), UniProt O00763)
Sequence (O00763 129-2458): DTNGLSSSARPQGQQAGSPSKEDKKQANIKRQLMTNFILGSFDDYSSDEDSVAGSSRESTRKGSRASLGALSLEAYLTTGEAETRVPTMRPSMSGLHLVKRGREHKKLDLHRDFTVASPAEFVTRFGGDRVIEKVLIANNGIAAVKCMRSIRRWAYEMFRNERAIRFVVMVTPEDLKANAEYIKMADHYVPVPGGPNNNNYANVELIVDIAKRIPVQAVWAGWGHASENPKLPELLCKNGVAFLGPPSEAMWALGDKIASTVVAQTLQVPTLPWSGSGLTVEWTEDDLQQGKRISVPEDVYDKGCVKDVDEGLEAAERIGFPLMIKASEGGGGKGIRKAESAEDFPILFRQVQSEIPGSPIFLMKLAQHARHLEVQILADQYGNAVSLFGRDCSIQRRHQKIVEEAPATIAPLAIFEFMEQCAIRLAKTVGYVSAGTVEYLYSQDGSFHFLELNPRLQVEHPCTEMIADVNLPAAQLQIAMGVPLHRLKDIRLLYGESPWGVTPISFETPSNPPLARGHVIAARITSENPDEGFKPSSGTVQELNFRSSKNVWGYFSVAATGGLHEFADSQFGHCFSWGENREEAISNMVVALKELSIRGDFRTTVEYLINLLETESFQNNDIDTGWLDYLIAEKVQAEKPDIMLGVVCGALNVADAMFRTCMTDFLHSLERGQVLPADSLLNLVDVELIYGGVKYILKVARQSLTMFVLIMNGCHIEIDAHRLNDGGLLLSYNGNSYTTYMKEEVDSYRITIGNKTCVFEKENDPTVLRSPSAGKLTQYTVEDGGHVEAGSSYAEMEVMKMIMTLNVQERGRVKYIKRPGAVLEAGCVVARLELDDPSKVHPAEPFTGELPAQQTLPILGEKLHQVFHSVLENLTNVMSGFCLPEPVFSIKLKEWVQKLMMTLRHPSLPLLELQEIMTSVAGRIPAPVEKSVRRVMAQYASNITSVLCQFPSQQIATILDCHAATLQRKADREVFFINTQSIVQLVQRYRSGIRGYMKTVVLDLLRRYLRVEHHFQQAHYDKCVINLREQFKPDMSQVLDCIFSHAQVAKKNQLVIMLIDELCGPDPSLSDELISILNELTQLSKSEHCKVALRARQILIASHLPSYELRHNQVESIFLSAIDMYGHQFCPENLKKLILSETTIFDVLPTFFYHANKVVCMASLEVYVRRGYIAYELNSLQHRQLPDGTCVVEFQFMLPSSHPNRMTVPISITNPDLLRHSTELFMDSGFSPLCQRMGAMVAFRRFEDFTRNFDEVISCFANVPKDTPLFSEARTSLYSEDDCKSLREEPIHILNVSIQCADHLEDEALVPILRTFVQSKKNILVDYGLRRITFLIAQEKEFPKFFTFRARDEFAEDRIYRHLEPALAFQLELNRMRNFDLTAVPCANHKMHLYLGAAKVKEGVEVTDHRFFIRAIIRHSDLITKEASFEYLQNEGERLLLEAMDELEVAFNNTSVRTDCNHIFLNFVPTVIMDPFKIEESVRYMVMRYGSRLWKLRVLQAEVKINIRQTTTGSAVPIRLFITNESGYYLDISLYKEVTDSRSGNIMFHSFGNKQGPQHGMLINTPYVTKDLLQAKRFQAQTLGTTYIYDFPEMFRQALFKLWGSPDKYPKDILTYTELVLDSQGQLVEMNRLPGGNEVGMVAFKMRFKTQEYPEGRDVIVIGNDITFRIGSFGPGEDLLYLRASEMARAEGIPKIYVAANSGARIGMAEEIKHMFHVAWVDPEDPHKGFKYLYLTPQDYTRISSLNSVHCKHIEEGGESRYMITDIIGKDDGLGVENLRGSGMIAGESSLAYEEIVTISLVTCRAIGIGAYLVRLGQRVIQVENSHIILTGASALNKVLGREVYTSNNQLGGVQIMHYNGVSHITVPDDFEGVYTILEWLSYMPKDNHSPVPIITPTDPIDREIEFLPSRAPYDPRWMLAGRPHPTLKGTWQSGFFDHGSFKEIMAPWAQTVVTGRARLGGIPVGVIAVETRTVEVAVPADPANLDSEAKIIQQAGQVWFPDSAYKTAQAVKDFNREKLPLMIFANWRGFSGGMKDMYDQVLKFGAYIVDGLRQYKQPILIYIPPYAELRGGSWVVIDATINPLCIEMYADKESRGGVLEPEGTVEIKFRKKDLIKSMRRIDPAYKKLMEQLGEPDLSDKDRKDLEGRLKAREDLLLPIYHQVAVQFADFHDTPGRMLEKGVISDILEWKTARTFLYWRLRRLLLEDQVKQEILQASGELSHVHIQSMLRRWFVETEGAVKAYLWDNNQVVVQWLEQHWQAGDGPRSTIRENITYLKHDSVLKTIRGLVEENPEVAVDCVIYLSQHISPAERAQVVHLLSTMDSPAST
outcome_measure: IC50 (nM)

Look over these answered cases.
compound | reported_measurement
C[C@H](NC(=O)CCO)c1ccc(C2CN(c3ccc(OCC4CC4)cc3)C2)cc1 [Example 3.80] | 2440
COCC(=O)NC(C)Cc1ccc(C2CN(c3ccc(OCC4CC4)cc3)C2)cc1 (centres unmarked) [Example 3.16] | 3050
CC(Cc1ccc(C2CN(c3ccc(OCC4CC4)cc3)C2)cc1)NC(=O)C(C)F (centres unmarked) [Example 3.09] | 2510
CC(=O)N[C@@H](C)c1ccc(C2CN(c3ncc4nc(-c5ccsc5)oc4n3)C2)cc1 [Example 2.13] | 690
CC(=O)Nc1cncc(C(=O)NC(C)Cc2ccc(C3CN(c4ccc(OCC5CC5)cc4)C3)cc2)c1 (centres unmarked) [Example 3.05] | 1730
CC(=O)NCCCC(=O)NC(C)Cc1ccc(C2CN(c3ccc(OCC4CC4)cc3)C2)cc1 (centres unmarked) [Example 3.67] | 1680

[P] CC(F)C(=O)N[C@@H](C)c1ccc(C2CN(c3ccc(OCC4CC4)cc3)C2)cc1 (some centres unmarked) [Example 3.55]
[Q] C=CCC(=O)NC(C)Cc1ccc(C2CN(c3ccc4c(c3)OCCO4)C2)cc1 (centres unmarked) [Example 3.19]
Between P and Q , which one shows the smaller IC50 number? Choose, then provide that item's label.
P
